# EXPERIMENTAL TARGET: O^6-alkylguanine-DNA alkyltransferase (AGT) (Homo sapiens)
# ASSAY EXPLANATION: AGT inactivation in intact HT29 cells
A collection of compounds and their measured EC50

- STRUCTURE SMILES STRING: "Fc1nc(OCc2ccccc2)c2nc[nH]c2n1"
  EC50 [µM]: 12
- STRUCTURE SMILES STRING: "Nc1nc(N)c(Br)c(OCc2ccccc2)n1"
  EC50 [µM]: 0.8
- STRUCTURE SMILES STRING: "CC(=O)Nc1nc(OCc2ccccc2)c2[nH]c(=O)[nH]c2n1"
  EC50 [µM]: 11

* * *

# EXPERIMENTAL TARGET: alkyltransferase P138A/P140A (Homo sapiens, UniProt P16455, P138A/P140A)
# ASSAY EXPLANATION: Inhibition of mutant alkyltransferase proteins, P138A/P140A
# COND: P138A/P140A; concentration to inactivate 50% of the activity in 30 minutes; read-out: ED50 value
pEC50: −log10 of the molar value.

- STRUCTURE SMILES STRING: "Nc1nc(N)c(N=O)c(OCc2ccccc2)n1"
  EXPERIMENTAL TARGET: "alkyltransferase P138A/P140A (Homo sapiens, UniProt P16455, P138A/P140A)"
  pEC50: 6.52

* * *

# Tested on: MCF-71 breast cancer cells
# ASSAY EXPLANATION: Killing of MCF-71 breast cancer cells by BCNU combined with AGT inactivators (colony formation)
# COND: inactivator 10 μM, BCNU none
Short version: Colony Formation per 1000 cells at least 400 per 1000 cells is label 1, less is label 0.

- MOLECULE: "Nc1nc(OCc2ccccc2)c2nc(N)[nH]c2n1"
  LABEL VALUE: "label 1"
- MOLECULE: "Nc1nc(OCc2ccccc2)c2[nH]c(=O)[nH]c2n1"
  LABEL VALUE: "label 1"
- MOLECULE: "Nc1nc(N)c(N)c(OCc2ccccc2)n1"
  LABEL VALUE: "label 1"
- MOLECULE: "Nc1nc(OCc2ccccc2)c2nc[nH]c2n1 [O^6-benzylguanine, reference compound]"
  LABEL VALUE: "label 1"
- MOLECULE: "Nc1nc(OCc2ccccc2)c2nn[nH]c2n1"
  LABEL VALUE: "label 1"
- MOLECULE: "Cc1nc2c(OCc3ccccc3)nc(N)nc2[nH]1"
  LABEL VALUE: "label 0"
- MOLECULE: "Nc1nc(OCc2ccccc2)c2nc(Br)[nH]c2n1"
  LABEL VALUE: "label 0"

* * *

# EXPERIMENTAL TARGET: O^6-alkylguanine-DNA alkyltransferase (AGT) (Homo sapiens, UniProt P16455)
# ASSAY EXPLANATION: AGT inactivation in intact HT29 cells
# COND: comparison
REPORTED PROPERTY: AGT inactivating activity in intact HT29 cells, in words

- STRUCTURE SMILES STRING: "Nc1ncc([N+](=O)[O-])c(OCc2ccccc2)n1"
  RESULT: "quite active in cells"
- STRUCTURE SMILES STRING: "Cc1nc(N)nc(OCc2ccccc2)c1[N+](=O)[O-]"
  RESULT: "quite active in cells"

* * *

# EXPERIMENTAL TARGET: UniProt P16455
# ASSAY EXPLANATION: Inhibition of alkyltransferase proteins, control protein
# COND: concentration to inactivate 50% of the activity in 30 minutes, read-out: ED50 value
REPORTED PROPERTY: EC50

- MOLECULE: "Nc1nc(N)c(N=O)c(OCc2ccccc2)n1 [Compound 3d]"
  REPORTED PROPERTY: "EC50"
  RESULT: "0.05 µM"

* * *

# EXPERIMENTAL TARGET: alkyltransferase G156A (Homo sapiens, UniProt P16455, G156A)
# Sequence (P16455 1-207 G156A): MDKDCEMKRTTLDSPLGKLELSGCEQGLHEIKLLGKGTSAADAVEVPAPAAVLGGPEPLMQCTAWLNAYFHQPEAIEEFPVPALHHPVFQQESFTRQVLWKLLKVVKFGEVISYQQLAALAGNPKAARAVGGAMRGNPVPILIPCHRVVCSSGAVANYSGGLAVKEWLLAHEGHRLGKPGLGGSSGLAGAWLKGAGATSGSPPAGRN
# ASSAY EXPLANATION: Inhibition of mutant alkyltransferase proteins, G156A
# COND: G156A; concentration to inactivate 50% of the activity in 30 minutes; read-out: ED50 value
pEC50: −log10 of the molar value.
REPORTED PROPERTY: pEC50

- STRUCTURE SMILES STRING: "Nc1nc(N)c(N=O)c(OCc2ccccc2)n1"
  REPORTED PROPERTY: "pEC50"
  QUANTITATIVE RESULT: 6.00

* * *

# EXPERIMENTAL TARGET: O^6-alkylguanine-DNA alkyltransferase (AGT) (Homo sapiens)
# ASSAY EXPLANATION: AGT inactivation in intact HT29 cells
pEC50: −log10 of the molar value.
Short version: pEC50 at least 7 is Satisfied, less is Not satisfied.

- COMPOUND: "Cn1c(C(F)(F)F)nc2c(OCc3ccccc3)nc(N)nc21"
  LABEL VALUE: "Not satisfied"
- COMPOUND: "Nc1nc(N)nc(OCc2ccccc2)n1"
  LABEL VALUE: "Not satisfied"
- COMPOUND: "CC(C)(C)C(=O)OCn1c(Br)nc2c(OCc3ccccc3)nc(N)nc21 [Compound 10b]"
  LABEL VALUE: "Satisfied"
- COMPOUND: "Nc1nc(N)c(N)c(OCc2ccccc2)n1"
  LABEL VALUE: "Not satisfied"
- COMPOUND: "Nc1nc(OCc2ccccc2)c2nc(Br)[nH]c2n1"
  LABEL VALUE: "Satisfied"
- COMPOUND: "O=c1nc(OCc2ccccc2)c2[nH]c(=O)[nH]c2[nH]1"
  LABEL VALUE: "Not satisfied"

* * *

A collection of compounds and their measured EC50
# EXPERIMENTAL TARGET: O^6-alkylguanine-DNA alkyltransferase (AGT) (Homo sapiens)
# Sequence (P16455 1-207): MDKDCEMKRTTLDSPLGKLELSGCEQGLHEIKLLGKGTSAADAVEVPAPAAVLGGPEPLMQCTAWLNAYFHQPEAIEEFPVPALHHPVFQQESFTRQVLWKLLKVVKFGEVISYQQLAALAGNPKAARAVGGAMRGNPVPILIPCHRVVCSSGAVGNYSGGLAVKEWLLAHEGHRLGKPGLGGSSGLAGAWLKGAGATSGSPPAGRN
# ASSAY EXPLANATION: AGT inactivation in intact HT29 cells

- COMPOUND: "Cc1nc(N)nc(OCc2ccccc2)c1[N+](=O)[O-] [Compound 5b]"
  UNIT ABBREV: "nM"
  EC50: 60
- COMPOUND: "Cn1nnc2c(OCc3ccccc3)nc(N)nc21 [Compound 8a, 8-Aza-O^6-benzyl-9-methylguanine]"
  UNIT ABBREV: "nM"
  EC50: 80
- COMPOUND: "CC(C)(C)C(=O)OCn1cnc2nc(N)nc(OCc3ccccc3)c21 [Compound 12, O^6-benzyl-7-(pivaloyloxymethyl)guanine]"
  UNIT ABBREV: "nM"
  EC50: 300
- COMPOUND: "Nc1nc(N)c(N=O)c(OCc2ccccc2)n1 [Compound 3d]"
  UNIT ABBREV: "nM"
  EC50: 20
- COMPOUND: "CC(C)(C)C(=O)OCn1nnc2nc(N)nc(OCc3ccccc3)c21 [Compound 9]"
  UNIT ABBREV: "nM"
  EC50: 160
- COMPOUND: "CNc1nc(OCc2ccccc2)c2nc[nH]c2n1 [Compound 4e, O^6-Benzyl-N^2-methylguanine]"
  UNIT ABBREV: "nM"
  EC50: 60000
- COMPOUND: "CN(C)c1nc(OCc2ccccc2)c2nc[nH]c2n1 [Compound 4f, O^6-Benzyl-N^2,N^2-dimethylguanine]"
  UNIT ABBREV: "nM"
  EC50: 110000
- COMPOUND: "Nc1nc(OCc2ccccc2)c2nc(C(F)(F)F)[nH]c2n1 [Compound 1e, O^6-Benzyl-8-trifluoromethylguanine]"
  UNIT ABBREV: "nM"
  EC50: 250
- COMPOUND: "Nc1nc(OCc2ccccc2)c2nc(N)[nH]c2n1 [Compound 1a, 8-Amino-O^6-benzylguanine]"
  UNIT ABBREV: "nM"
  EC50: 2000
- COMPOUND: "Nc1ncc([N+](=O)[O-])c(OCc2ccccc2)n1 [Compound 5a, 2-Amino-4-benzyloxy-5-nitropyrimidine]"
  UNIT ABBREV: "nM"
  EC50: 50
- COMPOUND: "O=c1nc(OCc2ccccc2)c2[nH]cnc2[nH]1 [Compound 4a, O^6-Benzylxanthine]"
  UNIT ABBREV: "nM"
  EC50: 35000
- COMPOUND: "Nc1nc(OCc2ccccc2)c2nn[nH]c2n1 [Compound 2, 8-Aza-O^6-benzylguanine]"
  UNIT ABBREV: "nM"
  EC50: 60
- COMPOUND: "Nc1cc(OCc2ccccc2)nc(N)n1 [Compound 3b, 2,4-diamino-6-benzyloxypyrimidine]"
  UNIT ABBREV: "nM"
  EC50: 5000
- COMPOUND: "CC(C)(C)C(=O)OCn1nnc2c(OCc3ccccc3)nc(N)nc21 [Compound 8b]"
  UNIT ABBREV: "nM"
  EC50: 230
- COMPOUND: "Cn1c(Br)nc2c(OCc3ccccc3)nc(N)nc21 [Compound 10a, O^6-Benzyl-8-bromo-9-methylguanine]"
  UNIT ABBREV: "nM"
  EC50: 250
- COMPOUND: "Nc1ncnc(OCc2ccccc2)c1[N+](=O)[O-] [Compound 3a, 4-Amino-6-benzyloxy-5-nitropyrimidine]"
  UNIT ABBREV: "nM"
  EC50: 8000
